Cited source for all entries: ChEMBL document CHEMBL3351721

# ASSAY SYSTEM: ADP-ribosyl cyclase/cyclic ADP-ribose hydrolase 1 (Homo sapiens, UniProt P28907)
# Sequence (P28907 whole entry, the tested form may be a part): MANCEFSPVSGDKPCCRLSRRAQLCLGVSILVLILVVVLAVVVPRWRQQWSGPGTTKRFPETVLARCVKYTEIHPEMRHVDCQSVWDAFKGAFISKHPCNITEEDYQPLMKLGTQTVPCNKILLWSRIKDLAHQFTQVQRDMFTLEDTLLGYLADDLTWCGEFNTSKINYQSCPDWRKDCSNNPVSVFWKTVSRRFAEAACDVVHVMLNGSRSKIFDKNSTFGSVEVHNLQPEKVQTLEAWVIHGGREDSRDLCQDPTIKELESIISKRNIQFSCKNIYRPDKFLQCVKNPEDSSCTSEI
# PROTOCOL: Inhibition of human CD38 catalytic domain assessed as reduction in cADPR hydrolysis incubated for 10 mins by fluorimetric cycling assay
METRIC: pIC50
Please note pIC50 is a logarithmic value: minus log10 of concentration in mol/L. Answer with that number alone.

Challenge: What value of pIC50 has been reported for the following compound? "O=c1c2ncn3c2ncn1[C@@H]1O[C@H](COP(=O)(O)OP(=O)(O)OC[C@H]2O[C@@H]3[C@H](O)[C@@H]2O)[C@@H](O)[C@H]1O"
Response given: 3.56
